- TARGET_DESC: VGFR2 (KDR) (Homo sapiens, UniProt P35968)
- Construct: The catalytic sections of the corresponding tyrosine kinases are preferably expressed as GST fusion proteins; GST
- Sequence (P35968 834-1162 limits assumed): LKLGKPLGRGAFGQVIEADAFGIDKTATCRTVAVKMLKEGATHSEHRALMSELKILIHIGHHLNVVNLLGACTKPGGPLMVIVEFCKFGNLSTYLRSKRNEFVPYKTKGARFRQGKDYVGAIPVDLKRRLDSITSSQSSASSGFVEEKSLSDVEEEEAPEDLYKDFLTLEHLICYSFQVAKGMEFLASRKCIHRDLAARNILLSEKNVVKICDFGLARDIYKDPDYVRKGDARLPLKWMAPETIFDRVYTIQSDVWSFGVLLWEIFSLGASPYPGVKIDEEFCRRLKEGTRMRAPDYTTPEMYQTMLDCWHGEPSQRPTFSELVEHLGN
- ASSAY_EXPLANATION: flashplate kinase assay, phosphorylation of Biotin-poly-Glu-Tyr (4:1) by VGFR2 (KDR)
READOUT_LABEL: IC50 (nM)

CNC(=O)c1cc(Oc2ccc(NC(=O)Nc3cc(C(F)(F)F)ccc3-n3ccnc3)cc2)cc[n+]1[O-] 56

[a] O=C(Nc1ccc(Oc2cc[n+]([O-])cc2)cc1)Nc1cc(C(F)(F)F)ccc1-n1cncn1
[b] CNC(=O)c1cc(Oc2ccc(NC(=O)Nc3cc(C(F)(F)F)ccc3-n3cncn3)cc2)cc[n+]1[O-]
[c] CNC(=O)c1cc(Oc2ccc(NC(=O)Nc3cc(C(F)(F)F)ccc3-n3ccnn3)cc2)cc[n+]1[O-]
Q) Put the items in order so that reported IC50 rises from first to last. A ranking is expressed here by listing the labels in the requested order.
A) b, c, a
(b: 14 nM, c: 49 nM, a: 1200 nM)
